# Test system: 3D7
# measurementDescription: qHTS profiling for inhibitors of Plasmodium falciparum proliferation (AID 504749); also: nearly all actives have a fitted effect of over 60% in size
# conditionSummary: P. falciparum in erythrocytes, SYBR Green DNA, 72 h; series mostly up to 28.7 µM
Results filed as inconclusive are left out. Calls of active or inactive are those of the source. Calls follow the shape of the dose curve; as a rule, active = well fitted inhibition curve with a large enough effect; inconclusive = small, poorly fitted or top-dose-only effect; inactive = flat fitted curve, though single readings scatter.
Bench note: report the call from Yes (active), No (inactive)

COc1cc2c(Nc3ccc(Br)cc3F)ncnc2cc1OCC1CCN(C)CC1 ... Yes
CNNCc1ccc(C(=O)NC(C)C)cc1 ... No
COc1nc(N)nc2c1ncn2[C@@H]1O[C@H](CO)[C@@H](O)[C@@H]1O ... No
Nc1nc(N)nc(-c2cc(Cl)ccc2Cl)n1 ... No
O=S(=O)(O)CCS ... No

Exercise: How did this test come out for CN1CCN(c2c(F)cc3c(=O)c(C(=O)O)cn4c3c2OCN4C)CC1 ?
Solution: No

Exercise: How did this test come out for CCCN[C@H]1CCc2nc(N)sc2C1 ?
Solution: No

---

# Test system: DIV17
# measurementDescription: qHTS profiling for inhibitors of Plasmodium falciparum proliferation (AID 504749); also: nearly all actives have a fitted effect of over 60% in size
# conditionSummary: P. falciparum in erythrocytes, SYBR Green DNA, 72 h; series mostly up to 28.7 µM
# Method: NIH National Institute of Allergy and Infectious Diseases [NIAID] NIH Chemical Genomics Center [NCGC] […] Because mature erythrocytes lack DNA, only Plasmodium-derived DNA is detected. NCGC Assay Protocol Summary: The SYBR Green viability assay was adapted from a method described previously (Plouffe et al., 2008). […] The following morning, fluorescence intensity at 485(14) nm excitation and 535(25) nm emission wavelengths was measured on an EnVision (Perkin Elmer) plate reader. […]
Inconclusive results are not listed. The source made the active and inactive calls. Calls come from the whole dose curve; as a rule, active = well fitted inhibition curve with a large enough effect; inconclusive = small, poorly fitted or top-dose-only effect; inactive = flat fitted curve, though single readings scatter.
Bench note: report the call from active, inactive

A selection of reference data follows.
C#CCN[C@@H]1CCc2ccccc21 ... inactive
CN(CCOc1ccc(CC2SC(=O)NC2=O)cc1)c1ccccn1 (configuration not stated) ... inactive
C[C@]12C=CC(=O)C=C1CC[C@@H]1[C@@H]2C(=O)C[C@@]2(C)[C@H]1CC[C@]2(O)C(=O)CO ... inactive

Exercise: How did this test come out for CC1=NN(c2ccccc2)C(=O)C1 ?
Solution: inactive

Exercise: How did this test come out for N=C(N)c1ccc(OCCCCCOc2ccc(C(=N)N)cc2)cc1 ?
Solution: active

Exercise: How did this test come out for NCCCC(O)(P(=O)(O)O)P(=O)(O)O ?
Solution: inactive

---

# measurementDescription: qHTS profiling of the MIPE4 collection as inhibitors of Plasmodium falciparum (DD2) proliferation (AID 743345)
# conditionSummary: P. falciparum Dd2 in erythrocytes, SYBR Green DNA, 72 h; at 28.5 µM (top of the series) unless noted
valueType: parasite growth remaining, % of DMSO control (lower = more inhibition) (%)
Numbers only, in %.

Check out these entries, answers already filled in.
O=C(O)c1ccc(-n2nc(-c3ccccc3O)nc2-c2ccccc2O)cc1 ... 107
COc1ncnc(NS(=O)(=O)c2ccc(N)cc2)c1OC ... 105
NC(=O)c1ccc2[nH]ccc2c1 ... 90.8
Nc1nc(F)nc2c1ncn2[C@@H]1O[C@H](CO)[C@@H](O)[C@@H]1O ... 19.5

For each listed entry, give its parasite growth remaining, % of DMSO control (lower = more inhibition).
1. NS(=O)(=O)c1cc2c(cc1Cl)NC(C(Cl)Cl)NS2(=O)=O (stereo not given)
2. COC(=O)Nc1nc2ccc(Sc3ccccc3)cc2[nH]1
3. CCCCOc1ccc(CC(=O)NO)cc1
4. CCCCCCNC(=O)n1cc(F)c(=O)[nH]c1=O
5. COc1nc(N)nc2c1ncn2[C@@H]1O[C@H](CO)[C@@H](O)[C@@H]1O
6. CC(C)C[C@H](NC(=O)[C@H](CCc1ccccc1)NC(=O)CN1CCOCC1)C(=O)N[C@@H](Cc1ccccc1)C(=O)N[C@@H](CC(C)C)C(=O)[C@@]1(C)CO1

Solution:
1. 86.3
2. 99.3
3. 14.7
4. 32
5. 85.4
6. 7.08

The values you see were collected from PubChem BioAssay (NCATS).
